Molecular target: human active recombinant p38α-6His tagged (Homo sapiens, UniProt Q16539)
Construct: 6His
Sequence (Q16539 whole entry): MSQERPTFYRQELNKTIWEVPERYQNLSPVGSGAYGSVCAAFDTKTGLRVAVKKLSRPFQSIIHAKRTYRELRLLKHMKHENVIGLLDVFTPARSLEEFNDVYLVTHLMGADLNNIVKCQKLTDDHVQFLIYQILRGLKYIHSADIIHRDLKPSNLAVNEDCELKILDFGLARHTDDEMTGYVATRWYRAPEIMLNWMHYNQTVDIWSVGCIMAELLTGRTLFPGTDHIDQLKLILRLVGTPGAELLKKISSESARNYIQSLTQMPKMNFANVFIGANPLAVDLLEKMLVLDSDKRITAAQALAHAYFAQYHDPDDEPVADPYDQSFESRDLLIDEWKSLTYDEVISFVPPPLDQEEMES
Test: p38 Alpha Enzyme Assay (AlphaScreen, biotinylated-ATF2 substrate)
Assay type: biochemical
Conditions: pre-incubated 4 hours at 37° C., reaction initiated with ATP; 0.5 nM enzyme; read-out: p38 pIC50 (converted)
Catalogue of compounds with associated IC50
OBSERVED_PROPERTY: IC50 (nM)

COMPOUND: Cc1ccc(C(=O)NC2CC2)cc1-c1ccc2c(=O)n(Cc3ccc(S(C)(=O)=O)cc3)ccc2c1 [Example 5]
OBSERVED_PROPERTY: IC50
RECORDED_RESULT: 3.16
//
COMPOUND: Cc1ccc(C(=O)NC2CC2)cc1-c1ccc2c(=O)n(CC3CC3)cc(CN3CCC(N(C)C)CC3)c2c1 [Example 69]
OBSERVED_PROPERTY: IC50
RECORDED_RESULT: 0.2
//
COMPOUND: Cc1ccc(C(=O)NC2CC2)cc1-c1ccc2c(=O)n(Cc3ccc(S(C)(=O)=O)cc3)cc(CN3CCCN(C)CC3)c2c1 [Example 103]
OBSERVED_PROPERTY: IC50
RECORDED_RESULT: 0.126
//
COMPOUND: CNC1CCN(Cc2cn(CC3CC3)c(=O)c3ccc(-c4cc(C(=O)NC5CC5)cc(F)c4C)cc23)CC1 [Example 81]
OBSERVED_PROPERTY: IC50
RECORDED_RESULT: 0.1
//
COMPOUND: Cc1ccc(C(=O)NC2CC2)cc1-c1ccc2c(=O)n(CC3CC3)cc(C(=O)N3CCC(N(C)C)CC3)c2c1 [Example 45]
OBSERVED_PROPERTY: IC50
RECORDED_RESULT: 2.51
//
COMPOUND: Cc1c(F)cc(C(=O)NC2CC2)cc1-c1ccc2c(=O)n(CC3CC3)cc(CN3C[C@@H]4C[C@H]3CN4)c2c1 [Example 111]
OBSERVED_PROPERTY: IC50
RECORDED_RESULT: 0.1
